# maps each entry to its Average (percentage cell inhibition), Mastoparan PBMC
Test system: PBMC
MEASUREMENT_CONTEXT: 12.5 µM
MEASURE: Average (percentage cell inhibition), Mastoparan PBMC (%)

MOLECULE_SMILES	UNIT	READING
CC[C@H](C)[C@H](N)C(=O)N[C@@H](CC(N)=O)C(=O)N[C@@H](CC(C)C)C(=O)N[C@@H](CCCCN)C(=O)N[C@@H](C)C(=O)N[C@@H](CC(C)C)C(=O)N[C@@H](C)C(=O)N[C@@H](C)C(=O)N[C@@H](CC(C)C)C(=O)N[C@@H](C)C(=O)N[C@@H](CCCCN)C(=O)N[C@@H](CCCCN)C(=O)NCC(=O)N[C@@H](CC(C)C)C(N)=O	%	6.832
CC[C@H](C)[C@H](N)C(=O)N[C@@H](CC(N)=O)C(=O)N[C@@H](CC(C)C)C(=O)N[C@@H](CCCCN)C(=O)N1CCC[C@H]1C(=O)N[C@@H](CC(C)C)C(=O)N[C@@H](C)C(=O)N[C@@H](C)C(=O)N[C@@H](CC(C)C)C(=O)N[C@@H](C)C(=O)N[C@@H](CCCCN)C(=O)N[C@@H](CCCCN)C(=O)N[C@H](C(=O)N[C@@H](CC(C)C)C(N)=O)[C@@H](C)CC	%	0.2776

All figures here come from paper PMC12748989.
